# experimentalTarget: HNF4alpha2 (COS-7 nuclear extract) (Homo sapiens, UniProt P41235 1-474)
# Sequence: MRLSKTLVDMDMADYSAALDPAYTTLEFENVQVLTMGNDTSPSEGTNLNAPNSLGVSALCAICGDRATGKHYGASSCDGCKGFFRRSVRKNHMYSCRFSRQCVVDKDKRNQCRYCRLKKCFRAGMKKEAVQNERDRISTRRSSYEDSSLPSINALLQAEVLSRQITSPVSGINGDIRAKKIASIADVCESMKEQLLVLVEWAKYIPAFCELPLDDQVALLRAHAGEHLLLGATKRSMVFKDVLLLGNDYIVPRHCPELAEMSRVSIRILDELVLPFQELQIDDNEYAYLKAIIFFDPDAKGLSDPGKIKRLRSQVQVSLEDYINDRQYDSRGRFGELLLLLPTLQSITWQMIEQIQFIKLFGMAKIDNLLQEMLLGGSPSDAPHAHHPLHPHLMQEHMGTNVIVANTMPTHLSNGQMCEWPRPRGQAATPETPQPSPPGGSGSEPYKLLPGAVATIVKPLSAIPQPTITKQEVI
# assayName: protein-binding microarray; COS-7 nuclear extract on double-stranded Agilent 4x180k PBM; binding buffer, salt, pH and temperature not given in the material; high values mean tight binding
# settings: chain copies: 2; label: 3' end of strand 1 on the slide; dsDNA, one strand shown
Whole data set: some 18,000 sequences, median “log2 normalized intensity” near 0.39, cut for the highest 2% near 6.6. This is one part of a sample in which the highest values are shown more often than they occur.
Response field label: string, one of Yes (binding signal strictly below 2 log2 normalized intensity) or No.

Problem: Would you kindly verify if binding signal of `CCACTCTCATGGTCAATATTTTCTTTGTGCGCCTAGGGAGATTAGAGTATCGGTCGA` is strictly less than 2 log2 normalized intensity?
Solution: Yes

Problem: Confirm or reject: binding signal of `CATGTTAATTTAAATAACAAGGATAGCGTCGCCTAGGGAGATTAGAGTATCGGTCGA` lies strictly below 2 log2 normalized intensity
Solution: Yes

Problem: Hello, I'm reviewing records and need to know if binding signal of `AAGTGACCCTGGTCTTTGCCCTTTCCTAGAGCCTAGGGAGATTAGAGTATCGGTCGA` is below 2 log2 normalized intensity. Could you check?
Solution: No

Problem: Here's an entry: `TGGTTAGGTATTTTAAGTCACCAGATGAGAGCCTAGGGAGATTAGAGTATCGGTCGA` . Is its binding signal below 2 log2 normalized intensity?
Solution: Yes

Problem: Does this sequence meet the criterion binding signal < 2 log2 normalized intensity? `CCGCGACAAGCGTCGCTGAGTGGAGGCCCAGCCTAGGGAGATTAGAGTATCGGTCGA`
Solution: Yes

Problem: Given `TGGACTTTGCACTAAAAGCCATGAGAAGGTGCCTAGGGAGATTAGAGTATCGGTCGA` , is recorded binding signal strictly lower than 2 log2 normalized intensity?
Solution: No

Problem: Confirm or reject: binding signal of `CATGGGCTGTCACCTTTACCCCCACTCTCCGCCTAGGGAGATTAGAGTATCGGTCGA` lies strictly below 2 log2 normalized intensity
Solution: No

Problem: Hello, I'm reviewing records and need to know if binding signal of `CACTCAATGCAGCAGCATTGGACCCTCCCAGCCTAGGGAGATTAGAGTATCGGTCGA` is below 2 log2 normalized intensity. Could you check?
Solution: No

###

# experimentalTarget: HNF4alpha2 (COS-7 nuclear extract) (Homo sapiens, UniProt P41235 1-474)
# Sequence: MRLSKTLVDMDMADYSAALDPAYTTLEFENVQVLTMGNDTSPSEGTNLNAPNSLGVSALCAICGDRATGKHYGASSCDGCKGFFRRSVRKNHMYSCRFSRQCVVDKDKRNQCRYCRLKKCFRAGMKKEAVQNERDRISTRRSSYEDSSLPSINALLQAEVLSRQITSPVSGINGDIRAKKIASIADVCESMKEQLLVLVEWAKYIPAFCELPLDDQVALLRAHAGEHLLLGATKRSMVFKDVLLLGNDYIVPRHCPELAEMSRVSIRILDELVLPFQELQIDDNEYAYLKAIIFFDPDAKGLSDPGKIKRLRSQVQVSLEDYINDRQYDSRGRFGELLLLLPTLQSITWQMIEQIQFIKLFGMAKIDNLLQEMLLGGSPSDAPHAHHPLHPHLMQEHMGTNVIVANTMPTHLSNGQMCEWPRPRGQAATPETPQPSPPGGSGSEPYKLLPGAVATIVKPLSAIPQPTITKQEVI
# assayName: protein-binding microarray; COS-7 nuclear extract on double-stranded Agilent 4x180k PBM; binding buffer, salt, pH and temperature not given in the material; high values mean tight binding
# settings: chain copies: 2; label: 3' end of strand 1 on the slide; dsDNA, one strand shown
Whole data set: some 18,000 sequences, median “log2 normalized intensity” near 0.39, cut for the highest 2% near 6.6. The sample as a whole holds a higher share of the highest values than the screen did.
metricName: binding signal (log2 normalized intensity)
Report as a plain number; the unit log2 normalized intensity is understood.

{"sequenceContent": "CACTTACAAGTGTACAAAGGTCACTTCTGTGCCTAGGGAGATTAGAGTATCGGTCGA", "binding signal (log2 normalized intensity)": 6.32}
{"sequenceContent": "CTTGGCTGTGTCCCTTGACCAAAGGTCACTGCCTAGGGAGATTAGAGTATCGGTCGA", "binding signal (log2 normalized intensity)": 6.77}
{"sequenceContent": "AGTATATTGGCTTGGCTGTGTCCCTTGACCGCCTAGGGAGATTAGAGTATCGGTCGA", "binding signal (log2 normalized intensity)": 3.04}
{"sequenceContent": "GGAATGTCTGACCAACCTGTCCAAAGGTCAGCCTAGGGAGATTAGAGTATCGGTCGA", "binding signal (log2 normalized intensity)": 7.66}
{"sequenceContent": "GTCTGACCAACCTGTCCAAAGGTCATCTGTGCCTAGGGAGATTAGAGTATCGGTCGA", "binding signal (log2 normalized intensity)": 7.04}
{"sequenceContent": "TATACCTGTACACTTACAAGTGTACAAAGGGCCTAGGGAGATTAGAGTATCGGTCGA", "binding signal (log2 normalized intensity)": 2.65}

Problem: Recorded binding signal for `ATTGGCTTGGCTGTGTCCCTTGACCAAAGGGCCTAGGGAGATTAGAGTATCGGTCGA` with HNF4alpha2 (COS-7 nuclear extract) (Homo sapiens, UniProt P41235 1-474), please?
Solution: 2.07

Problem: Checklist item: binding signal tested on HNF4alpha2 (COS-7 nuclear extract) (Homo sapiens, UniProt P41235 1-474), entry `ACCAACCTGTCCAAAGGTCATCTGTCACTCGCCTAGGGAGATTAGAGTATCGGTCGA` , value?
Solution: 5.7

Problem: Hi! What's the reported binding signal for `TCAGAGGAATGTCTGACCAACCTGTCCAAAGCCTAGGGAGATTAGAGTATCGGTCGA` on HNF4alpha2 (COS-7 nuclear extract) (Homo sapiens, UniProt P41235 1-474)?
Solution: 0.136

###

# experimentalTarget: HNF4alpha2 (COS-7 nuclear extract) (Homo sapiens, UniProt P41235 1-474)
# Sequence: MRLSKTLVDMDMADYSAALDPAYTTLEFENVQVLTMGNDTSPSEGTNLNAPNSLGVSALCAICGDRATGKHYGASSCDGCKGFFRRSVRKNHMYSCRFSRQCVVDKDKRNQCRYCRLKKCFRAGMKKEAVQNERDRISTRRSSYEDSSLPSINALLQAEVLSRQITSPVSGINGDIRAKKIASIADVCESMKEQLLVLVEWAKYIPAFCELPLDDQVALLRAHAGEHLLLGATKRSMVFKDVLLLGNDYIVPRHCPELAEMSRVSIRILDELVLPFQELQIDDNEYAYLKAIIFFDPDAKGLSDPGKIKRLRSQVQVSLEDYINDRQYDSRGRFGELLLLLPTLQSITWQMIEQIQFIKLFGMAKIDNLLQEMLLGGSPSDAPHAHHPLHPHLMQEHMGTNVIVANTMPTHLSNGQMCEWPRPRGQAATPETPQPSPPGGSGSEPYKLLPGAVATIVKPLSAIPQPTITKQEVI
# assayName: protein-binding microarray; COS-7 nuclear extract on double-stranded Agilent 4x180k PBM; binding buffer, salt, pH and temperature not given in the material; high values mean tight binding
# settings: chain copies: 2; label: 3' end of strand 1 on the slide; dsDNA, one strand shown
The full ranking holds about 18,000 sequences; the median of “log2 normalized intensity” is about 0.39, and the highest 2% start at about 6.6. For the sample, the highest values were picked, then their nearest neighbours and some sequences at random.
Entries and their measured binding signal follow.
Report the figure in log2 normalized intensity without appending any unit label.

Problem: For the sequence `ATTTGACAATTTACAGTGTTCAAAGGTAGCGCCTAGGGAGATTAGAGTATCGGTCGA` , what binding signal is on record?
Solution: 1.66

Problem: // lookup binding signal for `CTATCATTATCTCTCACTGCAGAAACTCTGGCCTAGGGAGATTAGAGTATCGGTCGA`
Solution: 1.35

Problem: Record request: binding signal value, item `AACTTCTTATCACTTGGTGGACATGGTTCAGCCTAGGGAGATTAGAGTATCGGTCGA`
Solution: 2.02
